- assay.system: Ephrin type-B receptor 4 (Homo sapiens);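 further: each value is a mean percent inhibition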
- Sequence (whole entry): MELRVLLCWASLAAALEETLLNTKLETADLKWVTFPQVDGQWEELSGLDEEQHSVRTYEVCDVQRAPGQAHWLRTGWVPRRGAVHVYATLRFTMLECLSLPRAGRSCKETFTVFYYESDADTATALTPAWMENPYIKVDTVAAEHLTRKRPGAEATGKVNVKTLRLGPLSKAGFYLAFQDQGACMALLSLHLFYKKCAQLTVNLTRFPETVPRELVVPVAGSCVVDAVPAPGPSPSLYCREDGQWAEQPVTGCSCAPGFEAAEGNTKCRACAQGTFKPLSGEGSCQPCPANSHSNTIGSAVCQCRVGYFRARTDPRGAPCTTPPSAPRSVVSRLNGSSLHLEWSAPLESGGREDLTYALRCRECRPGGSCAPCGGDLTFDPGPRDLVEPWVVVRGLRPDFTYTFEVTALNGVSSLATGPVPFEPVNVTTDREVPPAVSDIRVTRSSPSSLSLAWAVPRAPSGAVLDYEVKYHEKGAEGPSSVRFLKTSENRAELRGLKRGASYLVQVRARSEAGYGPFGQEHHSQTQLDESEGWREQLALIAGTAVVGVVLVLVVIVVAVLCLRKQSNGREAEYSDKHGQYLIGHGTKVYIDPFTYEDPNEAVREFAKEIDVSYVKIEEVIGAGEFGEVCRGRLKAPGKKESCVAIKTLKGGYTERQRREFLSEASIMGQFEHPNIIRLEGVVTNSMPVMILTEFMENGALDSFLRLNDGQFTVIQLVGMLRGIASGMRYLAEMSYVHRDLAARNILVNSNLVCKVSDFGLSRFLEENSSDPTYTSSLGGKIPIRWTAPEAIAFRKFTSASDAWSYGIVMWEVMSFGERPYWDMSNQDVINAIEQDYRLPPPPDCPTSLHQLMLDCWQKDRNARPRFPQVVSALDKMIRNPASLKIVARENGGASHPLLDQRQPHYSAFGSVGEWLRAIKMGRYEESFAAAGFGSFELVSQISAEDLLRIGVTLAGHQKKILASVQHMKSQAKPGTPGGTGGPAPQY
- test.parameters: at 0.1 µM
Below, each entry is listed alongside its reported inhibition.
Return type: number; implicit unit %.

Answered cases to consult:
I have this compound here, NS(=O)(=O)c1ccc(-c2ccc3c(NC(=O)C4CC4)n[nH]c3c2)cc1 , and I need its recorded inhibition. 1.05

Try this compound too: CCn1c(-c2nonc2N)nc2c(C#CC(C)(C)O)nc(O[C@@H](CN)c3ccccc3)cc21 -0.46

Try this compound too: Nc1nonc1-c1nc2cnccc2n1C1CCCCC1 -3.41

Try this compound too: CCn1c(-c2nonc2N)nc2c(C#CC(C)(C)O)ncc(OCC3CCNCC3)c21 -3.5

---
I have this compound here, COc1cccc(COc2cc(-n3cnc4ccccc43)sc2C(N)=O)c1 , and I need its recorded inhibition. -2.06

###

- assay.system: 5'-AMP-activated protein kinase catalytic subunit alpha-1 (Homo sapiens);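 further: enzyme tested as the AMPK alpha1 beta1 gamma1 complex, values reported as mean percent inhibition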
- test.parameters: at 0.1 µM
- Description: GSK_PKIS: AMPKA1 (A1B1G1) mean inhibition at 0.1 uM [Nanosyn]
parameter.measured: inhibition (%)
Return type: number; implicit unit %.

Answered cases to consult:
I have this compound here, NC(=O)c1sc(-n2cnc3cc(C(F)(F)F)ccc32)cc1OCc1ccccc1Br , and I need its recorded inhibition. 2.29

Try this compound too: CCn1c(-c2nonc2N)nc2c(C#CC(C)(C)O)nc(O[C@@H](CN)c3ccccc3)cc21 79.2

Try this compound too: Fc1ccc(-c2ncn(C3CCNCC3)c2-c2ccnc(Oc3ccccc3)n2)cc1 2.1

Try this compound too: CCn1c(-c2nonc2N)nc2c(C#CC(C)(C)O)ncc(OCC3CCNCC3)c21 13.8

Try this compound too: CCn1c(-c2nonc2N)nc2c(C#CCN)ncc(OCCCN)c21 0.48

Try this compound too: COc1cccc(COc2cc(-n3cnc4ccccc43)sc2C(N)=O)c1 0.92

API: the following record is the query input.
I have this compound here, COc1cc2c(cc1Nc1nc(Nc3ccsc3C(N)=O)c3cc[nH]c3n1)N(C(=O)CN(C)C)CCC2 , and I need its recorded inhibition. 1.03

###

- assay.system: Serine/threonine-protein kinase pim-3 (Homo sapiens) (UniProt Q86V86);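 further: mean inhibition of PIM3 kinase activity, recorded in the GSK_PKIS screening set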
- test.parameters: at 0.1 µM
Please mark 1 (yes) if the recorded inhibition is equal to or greater than 2%, and 0 (no) if it falls below.

Assess whether reported inhibition for NC(=O)c1sc(-n2cnc3cc(C(F)(F)F)ccc32)cc1OCc1ccccc1Br sits at 2% or higher. 0 (no)

---
Assess whether reported inhibition for Nc1nonc1-c1nc2cnccc2n1C1CCCCC1 sits at 2% or higher. 1 (yes)

###

- assay.system: Serine/threonine-protein kinase PAK 5 (Homo sapiens) (UniProt Q9P286)
- Sequence (Q9P286 whole entry, looked up): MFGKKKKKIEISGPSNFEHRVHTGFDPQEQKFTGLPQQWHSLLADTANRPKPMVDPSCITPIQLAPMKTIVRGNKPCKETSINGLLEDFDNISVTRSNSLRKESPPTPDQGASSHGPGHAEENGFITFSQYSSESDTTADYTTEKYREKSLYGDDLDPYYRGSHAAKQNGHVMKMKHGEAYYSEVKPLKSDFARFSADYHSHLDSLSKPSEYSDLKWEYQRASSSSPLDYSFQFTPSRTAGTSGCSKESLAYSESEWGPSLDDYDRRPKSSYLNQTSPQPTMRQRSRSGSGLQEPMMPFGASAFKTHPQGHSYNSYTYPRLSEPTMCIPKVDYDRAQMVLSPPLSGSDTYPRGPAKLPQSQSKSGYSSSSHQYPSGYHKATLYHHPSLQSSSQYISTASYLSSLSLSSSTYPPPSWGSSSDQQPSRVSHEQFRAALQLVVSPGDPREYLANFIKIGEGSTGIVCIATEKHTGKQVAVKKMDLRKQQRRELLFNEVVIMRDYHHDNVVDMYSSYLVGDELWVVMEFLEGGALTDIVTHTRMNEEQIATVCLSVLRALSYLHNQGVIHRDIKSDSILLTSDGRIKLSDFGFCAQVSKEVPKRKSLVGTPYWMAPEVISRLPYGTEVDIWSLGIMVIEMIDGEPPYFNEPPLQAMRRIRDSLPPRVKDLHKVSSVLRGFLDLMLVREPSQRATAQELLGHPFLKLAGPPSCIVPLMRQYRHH
- test.parameters: at 1 µM
- Description: GSK_PKIS: PAK5 mean inhibition at 1 uM [Nanosyn]
Below, each entry is listed alongside its reported inhibition.
Return type: number; implicit unit %.

Answered cases to consult:
I have this compound here, CCn1c(-c2nonc2N)nc2c(C#CC(C)(C)O)nc(O[C@@H](CN)c3ccccc3)cc21 , and I need its recorded inhibition. 62.2

Try this compound too: COc1cccc(-n2ncc3c(N/N=C/c4ccncc4)ncnc32)c1 6.09

Try this compound too: Cc1cc(-c2ccco2)cc(C)c1/C=C/c1cncc(-c2nn[nH]n2)c1 -2.25

Try this compound too: NC(=O)c1sc(-n2cnc3cc(C(F)(F)F)ccc32)cc1OCc1ccccc1Br 0.39

Try this compound too: CCn1c(-c2nonc2N)nc2c(C#CC(C)(C)O)ncc(OCC3CCNCC3)c21 76

---
I have this compound here, COc1cc(C=NNc2ncnc3c2cnn3Cc2ccccc2)ccc1O , and I need its recorded inhibition. -5.56

Try this compound too: Fc1ccc(-c2ncn(C3CCNCC3)c2-c2ccnc(Oc3ccccc3)n2)cc1 2.03

###

- Test system: Epidermal growth factor receptor (Homo sapiens), P00533 [L858R]
- Sequence (P00533 whole entry L858R): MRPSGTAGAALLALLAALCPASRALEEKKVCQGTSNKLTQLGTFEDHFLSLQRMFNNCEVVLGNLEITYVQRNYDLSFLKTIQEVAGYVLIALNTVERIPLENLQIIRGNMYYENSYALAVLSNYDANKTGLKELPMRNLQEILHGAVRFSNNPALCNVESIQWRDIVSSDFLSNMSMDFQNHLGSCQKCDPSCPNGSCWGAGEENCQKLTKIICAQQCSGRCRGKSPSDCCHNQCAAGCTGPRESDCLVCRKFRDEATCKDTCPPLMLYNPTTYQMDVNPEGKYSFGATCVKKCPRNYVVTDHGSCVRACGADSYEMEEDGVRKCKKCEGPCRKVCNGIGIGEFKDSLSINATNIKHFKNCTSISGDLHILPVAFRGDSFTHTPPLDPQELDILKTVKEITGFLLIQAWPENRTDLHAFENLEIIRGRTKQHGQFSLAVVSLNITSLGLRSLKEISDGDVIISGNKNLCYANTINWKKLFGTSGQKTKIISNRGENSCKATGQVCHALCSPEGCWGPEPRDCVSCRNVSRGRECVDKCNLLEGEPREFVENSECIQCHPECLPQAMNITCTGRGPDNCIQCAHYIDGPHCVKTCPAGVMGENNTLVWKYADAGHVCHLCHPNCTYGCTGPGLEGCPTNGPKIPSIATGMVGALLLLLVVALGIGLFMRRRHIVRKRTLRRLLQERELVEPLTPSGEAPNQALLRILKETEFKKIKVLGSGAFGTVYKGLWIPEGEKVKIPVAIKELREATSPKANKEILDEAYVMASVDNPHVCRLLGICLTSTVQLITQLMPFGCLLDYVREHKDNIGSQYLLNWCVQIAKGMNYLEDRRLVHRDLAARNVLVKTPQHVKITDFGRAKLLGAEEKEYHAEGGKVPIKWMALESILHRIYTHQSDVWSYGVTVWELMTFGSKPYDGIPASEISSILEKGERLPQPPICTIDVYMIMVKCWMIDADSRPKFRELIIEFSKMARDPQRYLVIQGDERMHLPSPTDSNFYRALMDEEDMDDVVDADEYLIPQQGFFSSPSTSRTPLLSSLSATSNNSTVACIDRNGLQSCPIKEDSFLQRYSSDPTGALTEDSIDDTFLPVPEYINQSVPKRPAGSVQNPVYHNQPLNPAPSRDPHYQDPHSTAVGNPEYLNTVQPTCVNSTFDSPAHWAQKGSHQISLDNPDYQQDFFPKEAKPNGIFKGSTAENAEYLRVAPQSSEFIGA
- test.parameters: at 0.1 µM
Below, each entry is listed alongside its reported inhibition.
Return type: number; implicit unit %.

Answered cases to consult:
I have this compound here, COc1cccc(-n2ncc3c(N/N=C/c4ccncc4)ncnc32)c1 , and I need its recorded inhibition. 20.7

Try this compound too: COc1cc(C=NNc2ncnc3c2cnn3Cc2ccccc2)ccc1O 64.3

Try this compound too: Fc1ccc(-c2ncn(C3CCNCC3)c2-c2ccnc(Oc3ccccc3)n2)cc1 3.24

---
I have this compound here, Cc1cc(-c2ccco2)cc(C)c1/C=C/c1cncc(-c2nn[nH]n2)c1 , and I need its recorded inhibition. 0.25

Try this compound too: CCn1c(-c2nonc2N)nc2c(C#CC(C)(C)O)nc(O[C@@H](CN)c3ccccc3)cc21 -1.92

###

- assay.system: 3-phosphoinositide-dependent protein kinase 1 (Homo sapiens);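 further: values are mean inhibition of PDK1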
- test.parameters: at 0.1 µM
parameter.measured: inhibition (%)
Return type: number; implicit unit %.

Answered cases to consult:
I have this compound here, CCn1c(-c2nonc2N)nc2c(C#CC(C)(C)O)nc(O[C@@H](CN)c3ccccc3)cc21 , and I need its recorded inhibition. 3.51

Try this compound too: NC(=O)c1sc(-n2cnc3cc(C(F)(F)F)ccc32)cc1OCc1ccccc1Br 2.62

Try this compound too: CCn1c(-c2nonc2N)nc2c(C#CCN)ncc(OCCCN)c21 1.2

Try this compound too: Nc1nonc1-c1nc2cnccc2n1C1CCCCC1 0.3

---
I have this compound here, Cc1cc(-c2ccco2)cc(C)c1/C=C/c1cncc(-c2nn[nH]n2)c1 , and I need its recorded inhibition. -0.25

###

Below, each entry is listed alongside its reported inhibition.
- Test system: Tyrosine-protein kinase ABL1 (Homo sapiens), P00519 [T315I]
- test.parameters: at 1 µM
Return type: number; implicit unit %.

Answered cases to consult:
I have this compound here, COc1cc2c(cc1Nc1nc(Nc3ccsc3C(N)=O)c3cc[nH]c3n1)N(C(=O)CN(C)C)CCC2 , and I need its recorded inhibition. 2.06

Try this compound too: COc1cccc(COc2cc(-n3cnc4ccccc43)sc2C(N)=O)c1 0.66

Try this compound too: NS(=O)(=O)c1ccc(N/C=C2\C(=O)Nc3ccc4ncsc4c32)cc1 41.1

Try this compound too: CCn1c(-c2nonc2N)nc2c(C#CCN)ncc(OCCCN)c21 1.94

Try this compound too: CCn1c(-c2nonc2N)nc2c(C#CC(C)(C)O)ncc(OC[C@@H]3CCCN3)c21 0.65

Try this compound too: Cc1cc(-c2ccco2)cc(C)c1/C=C/c1cncc(-c2nn[nH]n2)c1 2.45

---
I have this compound here, NS(=O)(=O)c1ccc(-c2ccc3c(NC(=O)C4CC4)n[nH]c3c2)cc1 , and I need its recorded inhibition. 15.1

###

- assay.system: Macrophage-stimulating protein receptor (Homo sapiens) (UniProt Q04912)
- Sequence (Q04912 25-304 limits assumed): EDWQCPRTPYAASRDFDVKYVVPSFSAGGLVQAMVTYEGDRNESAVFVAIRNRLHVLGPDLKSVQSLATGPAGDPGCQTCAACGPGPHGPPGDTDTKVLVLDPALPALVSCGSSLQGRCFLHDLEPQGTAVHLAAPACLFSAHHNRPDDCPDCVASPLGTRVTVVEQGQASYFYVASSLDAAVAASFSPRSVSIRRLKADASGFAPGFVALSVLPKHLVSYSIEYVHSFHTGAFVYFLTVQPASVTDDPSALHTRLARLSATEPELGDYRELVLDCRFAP
- Sequence (Q04912 310-1400 limits assumed): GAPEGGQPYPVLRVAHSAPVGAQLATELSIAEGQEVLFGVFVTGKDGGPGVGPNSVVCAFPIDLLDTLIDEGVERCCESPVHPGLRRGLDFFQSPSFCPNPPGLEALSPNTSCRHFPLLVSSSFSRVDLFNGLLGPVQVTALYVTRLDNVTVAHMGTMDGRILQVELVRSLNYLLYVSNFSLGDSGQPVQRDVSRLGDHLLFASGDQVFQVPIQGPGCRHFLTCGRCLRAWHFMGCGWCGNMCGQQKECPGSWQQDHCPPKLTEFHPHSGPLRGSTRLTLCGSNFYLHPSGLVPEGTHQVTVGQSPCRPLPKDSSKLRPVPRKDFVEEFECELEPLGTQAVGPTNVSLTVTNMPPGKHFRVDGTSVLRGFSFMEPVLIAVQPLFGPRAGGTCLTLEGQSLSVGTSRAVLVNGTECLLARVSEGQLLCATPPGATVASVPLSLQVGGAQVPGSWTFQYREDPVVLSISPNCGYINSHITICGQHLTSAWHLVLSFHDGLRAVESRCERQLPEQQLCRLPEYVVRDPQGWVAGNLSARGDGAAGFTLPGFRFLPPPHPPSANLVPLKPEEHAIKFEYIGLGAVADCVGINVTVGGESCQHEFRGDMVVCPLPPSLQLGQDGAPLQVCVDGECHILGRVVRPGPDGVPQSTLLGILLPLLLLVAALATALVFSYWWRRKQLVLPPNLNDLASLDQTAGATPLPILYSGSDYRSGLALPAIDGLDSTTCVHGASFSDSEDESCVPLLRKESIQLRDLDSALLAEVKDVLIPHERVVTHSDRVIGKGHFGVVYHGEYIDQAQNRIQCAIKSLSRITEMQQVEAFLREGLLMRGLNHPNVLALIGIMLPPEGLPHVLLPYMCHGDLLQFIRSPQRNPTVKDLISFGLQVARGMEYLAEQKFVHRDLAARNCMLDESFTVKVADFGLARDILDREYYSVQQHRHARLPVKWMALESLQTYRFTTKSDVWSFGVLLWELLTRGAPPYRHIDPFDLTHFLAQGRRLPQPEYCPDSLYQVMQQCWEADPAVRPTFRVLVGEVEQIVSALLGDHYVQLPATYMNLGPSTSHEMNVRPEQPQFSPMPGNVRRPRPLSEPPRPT
- test.parameters: at 1 µM
- Description: GSK_PKIS: RON mean inhibition at 1 uM [Nanosyn]
parameter.measured: inhibition (%)
Return type: number; implicit unit %.

Answered cases to consult:
I have this molecule here, COc1cccc(COc2cc(-n3cnc4ccccc43)sc2C(N)=O)c1 , and I need its recorded inhibition. 1.23

Try this molecule too: NC(=O)c1sc(-n2cnc3cc(C(F)(F)F)ccc32)cc1OCc1ccccc1Br -1.59

Try this molecule too: NS(=O)(=O)c1ccc(-c2ccc3c(NC(=O)C4CC4)n[nH]c3c2)cc1 8.99

---
I have this molecule here, COc1cc2c(cc1Nc1nc(Nc3ccsc3C(N)=O)c3cc[nH]c3n1)N(C(=O)CN(C)C)CCC2 , and I need its recorded inhibition. 11.5

Try this molecule too: Fc1ccc(-c2ncn(C3CCNCC3)c2-c2ccnc(Oc3ccccc3)n2)cc1 -0.69

Try this molecule too: Cc1cc(-c2ccco2)cc(C)c1/C=C/c1cncc(-c2nn[nH]n2)c1 -0.11

Try this molecule too: COc1cc(C=NNc2ncnc3c2cnn3Cc2ccccc2)ccc1O 12.5

Try this molecule too: CCn1c(-c2nonc2N)nc2c(C#CC(C)(C)O)ncc(OC[C@@H]3CCCN3)c21 -2.78

Try this molecule too: NS(=O)(=O)c1ccc(N/C=C2\C(=O)Nc3ccc4ncsc4c32)cc1 39.2

Try this molecule too: COc1cccc(-n2ncc3c(N/N=C/c4ccncc4)ncnc32)c1 60.9
